Exercise: for every item that follows, state its recorded viability, T/C.
System: 463943-066-T-J2-PDC complex spheroid growth;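 note: compound exposure lasted 7 days; 100% = DMSO vehicle control wells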
PROTOCOL_TEXT: Anticancer human tumor 463943-066-T-J2-PDC patient-derived colon adenocarcinoma cell line growth inhibition [Asc]
RUN_CONDITIONS: second compound 3.16 µM; first compound 0.00316 µM; stronger effect = lower value

Please report the recorded viability, T/C for O=C(c1ccc(F)c(F)c1Nc1ccc(I)cc1F)N1CC(O)([C@@H]2CCCCN2)C1 + Cc1c(S(C)(=O)=O)c(-c2cc(F)cc(N3CCN(c4ccc(NS(=O)(=O)c5ccc(NC(CCN6CCC(C(=O)OCCCP(=O)(O)O)CC6)CSc6ccccc6)c(S(=O)(=O)C(F)(F)F)c5)cc4)CC3)c2)c(-c2ccc(Cl)cc2)n1C(C)C .
55.3%

May I ask what viability, T/C has been recorded for CCN1CCN(Cc2ccc(Nc3ncc(F)c(-c4cc(F)c5nc(C)n(C(C)C)c5c4)n3)nc2)CC1 + Cc1c(S(C)(=O)=O)c(-c2cc(F)cc(N3CCN(c4ccc(NS(=O)(=O)c5ccc(NC(CCN6CCC(C(=O)OCCCP(=O)(O)O)CC6)CSc6ccccc6)c(S(=O)(=O)C(F)(F)F)c5)cc4)CC3)c2)c(-c2ccc(Cl)cc2)n1C(C)C ?
61.8%

Bench note: what viability, T/C did NC1CCC(NC2CC2c2ccccc2)CC1 (stereo unspecified) + Cc1c(S(C)(=O)=O)c(-c2cc(F)cc(N3CCN(c4ccc(NS(=O)(=O)c5ccc(NC(CCN6CCC(C(=O)OCCCP(=O)(O)O)CC6)CSc6ccccc6)c(S(=O)(=O)C(F)(F)F)c5)cc4)CC3)c2)c(-c2ccc(Cl)cc2)n1C(C)C show?
59.3%

Item Cn1ncnc1[C@H]1c2n[nH]c(=O)c3cc(F)cc(c23)N[C@@H]1c1ccc(F)cc1 + Cc1c(S(C)(=O)=O)c(-c2cc(F)cc(N3CCN(c4ccc(NS(=O)(=O)c5ccc(NC(CCN6CCC(C(=O)OCCCP(=O)(O)O)CC6)CSc6ccccc6)c(S(=O)(=O)C(F)(F)F)c5)cc4)CC3)c2)c(-c2ccc(Cl)cc2)n1C(C)C has what recorded viability, T/C?
61%

Data request, read-out viability, T/C, for COc1c(OCCCN2CCOCC2)ccc2c3n(c(=NC(=O)c4cnc(N)nc4)nc12)CCN3 + Cc1c(S(C)(=O)=O)c(-c2cc(F)cc(N3CCN(c4ccc(NS(=O)(=O)c5ccc(NC(CCN6CCC(C(=O)OCCCP(=O)(O)O)CC6)CSc6ccccc6)c(S(=O)(=O)C(F)(F)F)c5)cc4)CC3)c2)c(-c2ccc(Cl)cc2)n1C(C)C
63.6%

Need viability, T/C of CNC(C)C(=O)NC1CN(S(=O)(=O)c2cccc(S(=O)(=O)N3CCC4CCC(C(=O)NC(c5ccccc5)c5ccccc5)N4C(=O)C(NC(=O)C(C)NC)C3)c2)CCC2CCC(C(=O)NC(c3ccccc3)c3ccccc3)N2C1=O (stereo unspecified) + Cc1c(S(C)(=O)=O)c(-c2cc(F)cc(N3CCN(c4ccc(NS(=O)(=O)c5ccc(NC(CCN6CCC(C(=O)OCCCP(=O)(O)O)CC6)CSc6ccccc6)c(S(=O)(=O)C(F)(F)F)c5)cc4)CC3)c2)c(-c2ccc(Cl)cc2)n1C(C)C , thanks.
65.8%
